Molecular target: DCAF1 WD40 domain (residues 1077-1390) (Homo sapiens, UniProt Q9Y4B6)
Construct: DCAF1 WD40 domain (residues 1077-1390)
Sequence (Q9Y4B6 1077-1390): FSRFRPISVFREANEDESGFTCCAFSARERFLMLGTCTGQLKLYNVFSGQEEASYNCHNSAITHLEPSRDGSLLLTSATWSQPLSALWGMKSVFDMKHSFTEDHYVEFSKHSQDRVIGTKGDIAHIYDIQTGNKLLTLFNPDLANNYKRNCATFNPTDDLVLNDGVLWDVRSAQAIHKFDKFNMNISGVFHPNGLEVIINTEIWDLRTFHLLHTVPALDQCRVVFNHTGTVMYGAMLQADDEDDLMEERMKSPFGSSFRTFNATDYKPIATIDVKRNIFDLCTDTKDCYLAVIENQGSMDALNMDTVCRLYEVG
Assay: DCAF1 binding assay by SPR (Biacore 8K+), DCAF1-3 KD
Conditions: 25 °C, read-out: DCAF1-3 SPR (KD)
recorded metric: Kd

Answered examples (4):
COCCOCCOCCC(c1cc(N2CC3CCC(C3)C2)ccn1)[C@@H]1CCCN(c2cccc(F)c2)C1 (some centres unmarked)	< 10 µM
NC(=O)C[C@H](NC(=O)c1cn[nH]c1-c1ccccc1F)c1ccc(O)cc1	> 200 µM
c1cc(CN2CCCC2)cc(N2CCC[C@@H](Nc3cc(N4CCOCC4)ccn3)C2)c1	< 10 µM
NC(=O)C[C@H](NC(=O)c1ccc(N)nc1-c1ccccc1F)c1cccc(Cl)c1	10 to 100 µM

Batch lookup, Kd per entry.
1. Clc1cccc(N2CCC[C@H]3[C@@H]2CCN3c2cc(N3CC4CC(C4)C3)ccn2)c1
2. OCCc1ccc(N2CCC[C@@H](Nc3cc(N4CCOCC4)ccn3)C2)cc1
3. NC(=O)C[C@@]1(NC(=O)c2c[nH]nc2-c2ccccc2F)CCCc2ccc(Cl)cc21

< 10 µM
> 200 µM
> 200 µM

// query Kd value for entry `OCCC[C@H]1C[C@H]2[C@H](CCCN2c2cccc(F)c2)N1c1cc(N2CCCCC2)ccn1`
> 200 µM
